Just for reference, patent US20090318349 is where these values come from.

Answer each item with its documented Activity towards hGHQ141N (RFU/sec/µg).
# System: hGHQ141N, P01241
# Sequence (P01241 27-217 Q167N): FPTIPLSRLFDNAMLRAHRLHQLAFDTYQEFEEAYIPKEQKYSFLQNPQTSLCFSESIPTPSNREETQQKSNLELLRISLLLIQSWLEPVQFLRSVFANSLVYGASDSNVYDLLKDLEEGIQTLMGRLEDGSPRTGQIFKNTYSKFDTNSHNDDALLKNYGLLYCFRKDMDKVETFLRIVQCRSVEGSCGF
Enter your answer as a number in RFU/sec/µg; do not include the unit.

In: Name the reported Activity towards hGHQ141N (RFU/sec/µg) value associated with the protein Met-mTGase from S. ladakanum (protein) MDSDERVTPPAEPLDRMPDPYRPSYGRAETIVNNYIRKWQQVYSHRDGRKQQMTEEQREWLSYGCVGVTWVNSGQYPTNRLAFAFFDEDKYKNELKNGRPRSGETRAEFEGRVAKDSFDEAKGFQRARDVASVMNKALENAHDEGAYLDNLKKELANGNDALRNEDARSPFYSALRNTPSFKDRNGGNHDPSKMKAVIYSKHFWSGQDRSGSSDKRKYGDPEAFRPDRGTGLVDMSRDRNIPRSPTSPGESFVNFDYGWFGAQTEADADKTVWTHGNHYHAPNGSLGAMHVYESKFRNWSDGYSDFDRGAYVVTFVPKSWNTAPDKVKQGWP
Out: 0.8

In: Name the reported Activity towards hGHQ141N (RFU/sec/µg) value associated with the protein GlyPro-mTGase from S. ladakanum (protein) GPDSDERVTPPAEPLDRMPDPYRPSYGRAETIVNNYIRKWQQVYSHRDGRKQQMTEEQREWLSYGCVGVTWVNSGQYPTNRLAFAFFDEDKYKNELKNGRPRSGETRAEFEGRVAKDSFDEAKGFQRARDVASVMNKALENAHDEGAYLDNLKKELANGNDALRNEDARSPFYSALRNTPSFKDRNGGNHDPSKMKAVIYSKHFWSGQDRSGSSDKRKYGDPEAFRPDRGTGLVDMSRDRNIPRSPTSPGESFVNFDYGWFGAQTEADADKTVWTHGNHYHAPNGSLGAMHVYESKFRNWSDGYSDFDRGAYVVTFVPKSWNTAPDKVKQGWP
Out: 0.48

In: Name the reported Activity towards hGHQ141N (RFU/sec/µg) value associated with the protein mature mTGase from Streptoverticillium ladakanum (protein) DSDERVTPPAEPLDRMPDPYRPSYGRAETIVNNYIRKWQQVYSHRDGRKQQMTEEQREWLSYGCVGVTWVNSGQYPTNRLAFAFFDEDKYKNELKNGRPRSGETRAEFEGRVAKDSFDEAKGFQRARDVASVMNKALENAHDEGAYLDNLKKELANGNDALRNEDARSPFYSALRNTPSFKDRNGGNHDPSKMKAVIYSKHFWSGQDRSGSSDKRKYGDPEAFRPDRGTGLVDMSRDRNIPRSPTSPGESFVNFDYGWFGAQTEADADKTVWTHGNHYHAPNGSLGAMHVYESKFRNWSDGYSDFDRGAYVVTFVPKSWNTAPDKVKQGWP
Out: 0.63

In: Name the reported Activity towards hGHQ141N (RFU/sec/µg) value associated with the protein AlaPro-mTGase from S. mobaraensis (protein) APDSDDRVTPPAEPLDRMPDPYRPSYGRAETVVNNYIRKWQQVYSHRDGRKQQMTEEQREWLSYGCVGVTWVNSGQYPTNRLAFASFDEDRFKNELKNGRPRSGETRAEFEGRVAKESFDEEKGFQRAREVASVMNRALENAHDESAYLDNLKKELANGNDALRNEDARSPFYSALRNTPSFKERNGGNHDPSRMKAVIYSKHFWSGQDRSSSADKRKYGDPDAFRPAPGTGLVDMSRDRNIPRSPTSPGEGFVNFDYGWFGAQTEADADKTVWTHGNHYHAPNGSLGAMHVYESKFRNWSEGYSDFDRGAYVITFIPKSWNTAPDKVKQGWP
Out: 1.56

In: Name the reported Activity towards hGHQ141N (RFU/sec/µg) value associated with the protein GlyPro-mTGase from S. mobaraensis (protein) GPDSDDRVTPPAEPLDRMPDPYRPSYGRAETVVNNYIRKWQQVYSHRDGRKQQMTEEQREWLSYGCVGVTWVNSGQYPTNRLAFASFDEDRFKNELKNGRPRSGETRAEFEGRVAKESFDEEKGFQRAREVASVMNRALENAHDESAYLDNLKKELANGNDALRNEDARSPFYSALRNTPSFKERNGGNHDPSRMKAVIYSKHFWSGQDRSSSADKRKYGDPDAFRPAPGTGLVDMSRDRNIPRSPTSPGEGFVNFDYGWFGAQTEADADKTVWTHGNHYHAPNGSLGAMHVYESKFRNWSEGYSDFDRGAYVITFIPKSWNTAPDKVKQGWP
Out: 1.13
